- tested_target: Neuronal acetylcholine receptor; alpha4/beta2 (Rattus norvegicus, UniProt P09483+P12390)
- Sequence (P09483 whole entry): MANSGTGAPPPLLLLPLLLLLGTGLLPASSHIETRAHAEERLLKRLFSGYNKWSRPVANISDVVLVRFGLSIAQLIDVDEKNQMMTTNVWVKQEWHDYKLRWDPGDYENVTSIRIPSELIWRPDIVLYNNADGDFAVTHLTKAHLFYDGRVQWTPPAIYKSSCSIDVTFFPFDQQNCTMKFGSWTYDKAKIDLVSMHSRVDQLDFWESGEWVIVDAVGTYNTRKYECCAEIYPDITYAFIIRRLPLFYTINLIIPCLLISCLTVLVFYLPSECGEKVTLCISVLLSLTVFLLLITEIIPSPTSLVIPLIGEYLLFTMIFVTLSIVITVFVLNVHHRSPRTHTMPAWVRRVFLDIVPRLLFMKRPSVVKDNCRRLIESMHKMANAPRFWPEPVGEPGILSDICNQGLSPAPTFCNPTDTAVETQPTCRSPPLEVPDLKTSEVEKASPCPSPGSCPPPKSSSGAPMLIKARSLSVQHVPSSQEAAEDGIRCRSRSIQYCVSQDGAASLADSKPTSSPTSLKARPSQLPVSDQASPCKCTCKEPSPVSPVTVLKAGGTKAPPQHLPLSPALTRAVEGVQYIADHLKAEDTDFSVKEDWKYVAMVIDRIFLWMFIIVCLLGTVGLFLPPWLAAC
- Sequence (P12390 whole entry): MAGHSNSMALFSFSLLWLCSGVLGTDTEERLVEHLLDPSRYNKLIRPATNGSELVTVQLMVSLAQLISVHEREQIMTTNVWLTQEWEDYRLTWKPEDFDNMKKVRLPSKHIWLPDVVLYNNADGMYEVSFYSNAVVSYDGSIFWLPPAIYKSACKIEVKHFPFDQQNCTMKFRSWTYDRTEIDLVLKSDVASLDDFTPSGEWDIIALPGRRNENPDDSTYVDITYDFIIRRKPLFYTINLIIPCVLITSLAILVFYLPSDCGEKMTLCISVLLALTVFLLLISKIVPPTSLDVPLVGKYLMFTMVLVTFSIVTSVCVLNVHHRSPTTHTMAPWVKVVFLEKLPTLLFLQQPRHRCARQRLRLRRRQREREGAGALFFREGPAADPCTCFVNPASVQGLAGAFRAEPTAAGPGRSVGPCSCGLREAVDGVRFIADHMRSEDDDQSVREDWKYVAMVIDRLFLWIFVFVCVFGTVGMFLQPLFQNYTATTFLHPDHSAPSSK
- measurement_protocol: Displacement of [3H]-nicotine from alpha4beta2 nicotine acetylcholine receptor in rat brain membranes after 90 mins by liquid scintillation spectrometric analysis
- Type: cell membranes, Membrane
measured_endpoint: pKi
# pKi = -log10(concentration in molar units)

Exercise: # get_value(readout= pKi, system= Neuronal acetylcholine receptor; alpha4/beta2 (Rattus norvegicus, UniProt P09483+P12390)) for CN1CCCC1c1cncc(C2CCCN2C)c1 (stereo unspecified)
Solution: 5.93

* * *

- measurement_protocol: Displacement of Torpedo californica electroplax muscle type (alpha1)2beta1gammadelta nicotine acetylcholine receptor (unknown origin) after 90 mins by radioligand displacement assay
- Design: species or system Tetronarce californica
pKi: −log10 of the molar value.
measured_endpoint: pKi

Take a look at these entries with their results.
> print(dat)
                           record.smiles  test.result
1  CN(C)CCOc1cncc(-c2cncc(OCCN(C)C)c2)c1         6.04
2            CN(C)CCOc1cncc(N2CCCNCC2)c1       < 6.00
3   CN(C)CCOc1cc(F)cc(N2CC3CNCC(C3)C2)c1       < 6.00
4      CN(C)CCOc1cncc(N2CC3CNCC(C3)C2)c1       < 6.00
5          CN(C)CCOc1cncc(N2CCN(C)CC2)c1       < 6.00

Exercise: Reported pKi for CN(C)CCOc1cncc(N2CCNCC2)c1 : what is it?
Solution: < 6.00
